Target: mCRT(1-351 ΔP) (Mus musculus, UniProt P14211, DEL204-300)
Sequence (P14211 with tags, fused parts or gaps DEL204-300): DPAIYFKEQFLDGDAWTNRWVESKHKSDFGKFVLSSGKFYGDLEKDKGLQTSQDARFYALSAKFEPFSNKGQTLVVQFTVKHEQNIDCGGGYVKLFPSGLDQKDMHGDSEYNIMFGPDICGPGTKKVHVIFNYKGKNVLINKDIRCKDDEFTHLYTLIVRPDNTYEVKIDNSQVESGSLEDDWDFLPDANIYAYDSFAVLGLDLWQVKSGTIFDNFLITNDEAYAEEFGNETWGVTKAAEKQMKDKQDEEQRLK
Assay: isothermal titration calorimetry, lipid vesicles titrated into […] protein
valueType: Kd (µM)

A = CCCCCCCC/C=C\CCCCCCCC(=O)O[C@H](COC(=O)CCCCCCCCCCCCCCC)COP(=O)(O)OC[C@H](N)C(=O)O [POPS]
B = CCCCCCCC/C=C\CCCCCCCC(=O)O[C@H](COC(=O)CCCCCCCCCCCCCCC)COP(=O)([O-])OCC[N+](C)(C)C [POPC]
Query block: Two entries are listed, A and B . Which one carries the higher Kd? Lab note: record the label of whichever item you select.
Result block: B

---

molecular target: mCRT(ΔP) (Mus musculus, UniProt P14211, DEL204-300); experiment: isothermal titration calorimetry, lipid vesicles titrated into […] protein
pKd: −log10 of the molar value.
valueType: pKd

P = CCCCCCCC/C=C\CCCCCCCC(=O)O[C@H](COC(=O)CCCCCCCCCCCCCCC)COP(=O)([O-])OCC[N+](C)(C)C [POPC]
Q = CCCCCCCC/C=C\CCCCCCCC(=O)O[C@H](COC(=O)CCCCCCCCCCCCCCC)COP(=O)(O)OC[C@H](N)C(=O)O [POPS]
Query block: Two entries are listed, P and Q . Which one carries the higher pKd? Lab note: record the label of whichever item you select.
Result block: Q
(Q: 5.12, P: 4.03)

---

Target sequence: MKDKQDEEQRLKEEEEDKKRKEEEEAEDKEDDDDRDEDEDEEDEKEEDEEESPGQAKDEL
valueType: Kd (µM)
Numbers only here, please. The scale is µM.

Query block: What value of Kd has been reported for the following molecule? CCCCCCCC/C=C\CCCCCCCC(=O)O[C@H](COC(=O)CCCCCCCCCCCCCCC)COP(=O)(O)OC[C@H](N)C(=O)O
Result block: 28.2

---

As a worked illustration, we turn to pKd data collected for mCRT(WT) (Mus musculus, UniProt P14211).
pKd: −log10 of the molar value.
valueType: pKd

I = CCCCCCCC/C=C\CCCCCCCC(=O)O[C@H](COC(=O)CCCCCCCCCCCCCCC)COP(=O)(O)OC[C@H](N)C(=O)O
II = CCCCCCCC/C=C\CCCCCCCC(=O)O[C@H](COC(=O)CCCCCCCCCCCCCCC)COP(=O)([O-])OCC[N+](C)(C)C
Query block: Two entries are listed, I and II . Which one carries the higher pKd? Lab note: record the label of whichever item you select.
Result block: I

Data origin, for the record: paper PMC5222549
